- Target or system: NPY2 receptors (Homo sapiens)
- Construct: Cell Membranes from KAN-TS cells having NPY2 receptors; endogenous in cells; host or cells: KAN-TS cells (membranes)
- Sequence (P49146 1-381): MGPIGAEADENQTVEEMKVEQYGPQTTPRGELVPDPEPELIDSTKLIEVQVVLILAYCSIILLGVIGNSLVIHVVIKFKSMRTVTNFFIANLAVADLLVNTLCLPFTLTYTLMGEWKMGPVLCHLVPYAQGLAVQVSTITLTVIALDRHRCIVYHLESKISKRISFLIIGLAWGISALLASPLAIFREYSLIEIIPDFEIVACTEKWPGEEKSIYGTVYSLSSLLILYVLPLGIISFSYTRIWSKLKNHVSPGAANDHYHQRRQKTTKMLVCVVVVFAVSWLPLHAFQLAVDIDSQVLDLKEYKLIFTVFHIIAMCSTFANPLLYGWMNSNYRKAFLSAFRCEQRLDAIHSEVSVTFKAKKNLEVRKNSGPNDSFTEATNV
- Test name: Neuropeptide Y receptor binding assay (125I-PYY, KAN-TS cell membranes)
- Assay setup: 10 μM compound; read-out: NPY-2@10, % Inh
Counter-ions that a name gives are not always drawn.
Measured quantity: inhibition at 10 µM (%)

NC(=O)CCn1c(=O)n(C2CCN(C(=S)NC(c3ccccc3)c3ccccc3)CC2)c2ccccc21
40
O=c1[nH]c2ccccc2n1C1CCN(C(=S)NCc2ccc3c(c2)OCO3)CC1
15
O=c1[nH]c2ccccc2n1C1CCN(C(=S)NC(c2ccccc2)c2ccc(Cl)cc2)CC1 (stereo not drawn)
22
O=C(NC(=S)N1CCC(n2c(=O)[nH]c3ccccc32)CC1)c1ccccc1
5
O=c1n(CCCN2CCCCC2)c2ccccc2n1C1CCN(C(=S)NCC(c2ccccc2)c2ccccc2)CC1
52
NCCCn1c(=O)n(C2CCN(C(=S)NC(c3ccccc3)c3ccccc3)CC2)c2ccccc21 [Compound 55, Monohydrochloride]
82
CN(C)CCCn1c(=O)n(C2CCN(C(=S)NC(c3ccccc3)c3ccccc3)CC2)c2ccccc21
79
CC(NC(=O)N1CCC(n2c(=O)[nH]c3ccccc32)CC1)c1cccc2ccccc12 (stereo in doubt)
13
CCCc1ccccc1NC(=O)N1CCC(n2c(=O)n(CCCN3CCCCC3)c3ccccc32)CC1
1
O=c1n(CCCCN2CCCCC2)c2ccccc2n1C1CCN(C(=S)NC(c2ccccc2)c2ccccc2)CC1
95
O=C(NC(c1ccccc1)c1ccccc1)N1CCC(n2c(=O)n(CCCN3CCCC3)c3ccccc32)CC1
20
CC(NC(=S)N1CCC(n2c(=O)[nH]c3ccccc32)CC1)c1ccc(F)cc1 (stereo not drawn)
15
CC(C)(C)OC(=O)NCCNC(=O)C(Cc1ccccc1)NC(=S)N1CCC(n2c(=O)[nH]c3ccccc32)CC1 (stereo not drawn)
16
CCN(CC)CCn1c(=O)n(C2CCN(C(=O)Nc3ccccc3C)CC2)c2ccccc21
0
O=c1n(CCN2CCOCC2)c2ccccc2n1C1CCN(C(=S)NC(c2ccccc2)c2ccccc2)CC1
69

* * *

- Target or system: UniProt P47901
- Sequence (P47901 1-424): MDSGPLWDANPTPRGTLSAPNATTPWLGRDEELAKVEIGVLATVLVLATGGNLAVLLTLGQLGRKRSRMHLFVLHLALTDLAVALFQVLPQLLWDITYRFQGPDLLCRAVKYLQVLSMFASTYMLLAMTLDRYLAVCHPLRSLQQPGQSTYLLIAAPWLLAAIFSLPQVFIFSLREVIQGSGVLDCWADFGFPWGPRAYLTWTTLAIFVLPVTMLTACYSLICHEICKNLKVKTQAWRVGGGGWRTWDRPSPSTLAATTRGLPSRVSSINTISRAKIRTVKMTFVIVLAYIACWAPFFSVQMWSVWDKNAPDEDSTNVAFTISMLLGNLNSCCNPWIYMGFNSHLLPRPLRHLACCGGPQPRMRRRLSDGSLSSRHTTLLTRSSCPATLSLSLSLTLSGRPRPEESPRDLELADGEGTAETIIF
- Test name: V1b binding assay (3H-AVP displacement, HEK-293 membranes)
- Design: expressed in transfected cells; host or cells: HEK-293 (membranes)
- Assay setup: 1.0 μM compound; read-out: V1b@1.0, % Inh
Cut-off 20% on inhibition at 1 µM, inclusive. At or above means Satisfied; below means Not satisfied.

CCCCN(CC)CCCn1c(=O)n(C2CCN(C(=S)NC(c3ccccc3)c3ccccc3)CC2)c2ccccc21
Satisfied
CCN(CC)CCn1c(=O)n(C2CCN(C(=O)NC(c3ccccc3)c3ccccc3)CC2)c2ccccc21
Satisfied
CC(CN1CCCC1)Cn1c(=O)n(C2CCN(C(=S)NC(c3ccccc3)c3ccccc3)CC2)c2ccccc21 (stereo not drawn)
Satisfied
O=c1n(CCCN2CCCCC2)c2ccccc2n1C1CCN(C(=S)NCc2ccc(Cl)cc2Cl)CC1
Satisfied
C[C@H](NC(=S)N1CCC(n2c(=O)n(CCCN3CCCCC3)c3ccccc32)CC1)c1ccccc1
Satisfied
O=C(NC(c1ccccc1)c1ccccc1)N1CCC(n2c(=O)n(CCCN3CCCCC3)c3ccccc32)CC1
Satisfied
Cc1ccccc1NC(=O)N1CCC(n2c(=O)n(CCCN3CCCCC3)c3ccccc32)CC1
Not satisfied
COc1ccc(C(NC(=S)N2CCC(n3c(=O)n(CCCN4CCCCC4)c4ccccc43)CC2)c2ccc(OC)cc2)cc1
Satisfied
O=c1n(CCCN2CCCCC2)c2ccccc2n1C1CCN(C(=S)Nc2ccccc2-c2ccccc2)CC1
Satisfied
O=C(Nc1ccccc1F)N1CCC(n2c(=O)n(CCCN3CCCCC3)c3ccccc32)CC1
Not satisfied
O=c1n(CCCN2CCCCC2)c2ccccc2n1C1CCN(C(=S)Nc2cccnc2)CC1
Not satisfied
O=c1n(CCCN2CCCCC2)c2ccccc2n1C1CCN(C(=S)NCc2cccc3ccccc23)CC1
Satisfied
O=C1OCCC1NC(=S)N1CCC(n2c(=O)n(CCCN3CCCCC3)c3ccccc32)CC1 (stereo not drawn)
Not satisfied
CC(NC(=S)N1CCC(n2c(=O)n(CCCN3CCCCC3)c3ccccc32)CC1)c1ccc(F)cc1 (stereo not drawn)
Satisfied
O=c1n(CCCN2CCCCC2)c2ccccc2n1C1CCN(C(=S)NCc2ccco2)CC1
Not satisfied

* * *

- Target or system: human V2 receptor (Homo sapiens)
- Sequence (P30518 whole entry): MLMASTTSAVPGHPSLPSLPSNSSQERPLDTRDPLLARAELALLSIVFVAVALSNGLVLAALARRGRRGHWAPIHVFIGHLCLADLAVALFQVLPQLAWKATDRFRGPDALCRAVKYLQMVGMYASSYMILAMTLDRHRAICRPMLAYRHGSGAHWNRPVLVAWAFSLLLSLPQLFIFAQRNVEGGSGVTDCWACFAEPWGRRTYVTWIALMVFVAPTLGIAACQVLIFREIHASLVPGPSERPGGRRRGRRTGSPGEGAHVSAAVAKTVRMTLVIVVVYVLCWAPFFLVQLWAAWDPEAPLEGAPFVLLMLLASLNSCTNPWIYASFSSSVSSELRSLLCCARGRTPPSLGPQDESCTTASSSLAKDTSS
- Test name: V2 binding assay (3H-AVP displacement, HEK-293 membranes)
- Set-up: expressed in transfected cells; host or cells: HEK-293 (membranes)
- Assay setup: 1.0 μM compound; read-out: V2@1.0, % Inh
Measured quantity: inhibition at 1 µM (%)

O=c1[nH]c2ccccc2n1C1CCN(C(=S)NCc2cccc3ccccc23)CC1 [Compound 15]
10
O=c1n(CCCN2CCCCC2)c2ccccc2n1C1CCN(C(=S)NCc2cccs2)CC1 [Compound 160]
0
O=c1n(CCCCN2CCCC2)c2ccccc2n1C1CCN(C(=S)NC(c2ccccc2)c2ccccc2)CC1 [Compound 104]
14
O=c1n(CCCN2CCCCC2)c2ccccc2n1C1CCN(C(=S)Nc2ccc(N3CCOCC3)cc2)CC1 [Compound 153]
0
CN(CCCn1c(=O)n(C2CCN(C(=S)NC(c3ccccc3)c3ccccc3)CC2)c2ccccc21)C1CCCCC1 [Compound 98]
0
O=C(O)CCn1c(=O)n(C2CCN(C(=S)NC(c3ccccc3)c3ccccc3)CC2)c2ccccc21 [Compound 61]
0
O=c1[nH]c2ccccc2n1C1CCN(C(=S)NCc2ccc(Cl)cc2)CC1 [Compound 28]
0
O=c1[nH]c2ccccc2n1C1CCN(C(=S)NCCc2ccc([N+](=O)[O-])cc2)CC1 [Compound 31]
15

* * *

- Target or system: UniProtKB P37288
- Sequence (P37288 whole entry): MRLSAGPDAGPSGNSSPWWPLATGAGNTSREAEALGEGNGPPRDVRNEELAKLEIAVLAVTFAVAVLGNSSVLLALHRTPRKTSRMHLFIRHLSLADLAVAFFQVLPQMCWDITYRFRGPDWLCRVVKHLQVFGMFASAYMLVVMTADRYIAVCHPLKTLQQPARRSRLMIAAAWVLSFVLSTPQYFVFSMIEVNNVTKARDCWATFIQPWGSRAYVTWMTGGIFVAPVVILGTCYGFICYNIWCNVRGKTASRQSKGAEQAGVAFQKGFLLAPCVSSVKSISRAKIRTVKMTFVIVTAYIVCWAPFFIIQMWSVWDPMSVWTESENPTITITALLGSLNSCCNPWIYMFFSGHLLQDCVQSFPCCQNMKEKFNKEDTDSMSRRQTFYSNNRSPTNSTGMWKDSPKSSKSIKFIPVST
- Test name: V1a binding assay (3H-AVP displacement, HEK-293 membranes)
- Design: expressed in transfected cells; host or cells: HEK-293 (membranes)
- Assay setup: 1.0 μM compound; read-out: V1a@1.0, % Inh
Measured quantity: inhibition at 1 µM (%)

O=c1n(CCCN2CCCCC2)c2ccccc2n1C1CCN(C(=S)NC(c2ccccc2)(c2ccccc2)c2ccccc2)CC1
0
CCOC(=O)CCn1c(=O)n(C2CCN(C(=S)NC(c3ccccc3)c3ccccc3)CC2)c2ccccc21
49
CC(C)(C)NC(=S)N1CCC(n2c(=O)n(CCCN3CCCCC3)c3ccccc32)CC1
19
O=c1n(CCCN2CCCCC2)c2ccccc2n1C1CCN(C(=S)Nc2ccc3c(c2)CCC3)CC1
28
COC(=O)[C@@H](Cc1ccccc1)NC(=S)N1CCC(n2c(=O)n(CCCNC(=N)N)c3ccccc32)CC1
52
CCN(CC)CCn1c(=O)n(C2CCN(C(=O)Nc3ccccc3C)CC2)c2ccccc21
3
O=c1[nH]c2ccccc2n1C1CCN(C(=S)NC(c2ccccc2)c2ccc(Cl)cc2)CC1 (stereo not shown)
42

* * *

- Target or system: human V1b receptor (Homo sapiens)
- Sequence (P47901 1-424): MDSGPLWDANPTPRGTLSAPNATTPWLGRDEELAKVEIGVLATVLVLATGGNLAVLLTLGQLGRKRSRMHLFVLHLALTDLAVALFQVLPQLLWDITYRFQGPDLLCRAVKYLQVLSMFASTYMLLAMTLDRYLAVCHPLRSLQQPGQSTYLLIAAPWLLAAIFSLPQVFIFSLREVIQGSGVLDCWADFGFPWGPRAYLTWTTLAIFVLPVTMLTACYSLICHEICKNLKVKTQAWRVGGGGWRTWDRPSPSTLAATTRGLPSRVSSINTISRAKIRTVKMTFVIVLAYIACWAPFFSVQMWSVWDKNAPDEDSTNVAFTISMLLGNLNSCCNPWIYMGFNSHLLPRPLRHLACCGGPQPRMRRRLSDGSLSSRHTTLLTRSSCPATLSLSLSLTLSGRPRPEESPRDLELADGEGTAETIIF
- Test name: V1b binding assay (3H-AVP displacement, HEK-293 membranes)
- Design: expressed in transfected cells; host or cells: HEK-293 (membranes)
- Description: V1a, V1b or V2 Binding Assay Receptor binding studies were performed using recombinant human V1a, V1b or V2 receptors. Cellular membranes were harvested from HEK-293 cells transfected to express either the V1a, V1b or V2 receptors. Compounds were evaluated for their ability to displace ^3H-arginine vasopressin (^3H-AVP; specific activity 40-87 Ci/mmol; NEN Life Sciences, Boston, Mass.). […] Non-specific binding was determined using 1.25 μM arginine vasopressin (AVP; Peninsula Labs, Belmont, Calif.). […]
pIC50: −log10 of the molar value. Structures can show the parent of a compound that is named as a salt.
Measured quantity: pIC50

NCCCCn1c(=O)n(C2CCN(C(=S)NC(c3ccccc3)c3ccccc3)CC2)c2ccccc21
5.27
CN(CCCn1c(=O)n(C2CCN(C(=S)NC(c3ccccc3)c3ccccc3)CC2)c2ccccc21)C1CCCCC1
6.75
NCCn1c(=O)n(C2CCN(C(=S)NC(c3ccccc3)c3ccccc3)CC2)c2ccccc21 [Compound 63, Hydrochloride]
5.33
N=C(N)NCCCn1c(=O)n(C2CCN(C(=S)NC(c3ccccc3)c3ccccc3)CC2)c2ccccc21
5.39
